Each recorded value in this set is attributed to patent US4990703A.

- System: testosterone-stimulated sebum secretion
- assay method text: Inhibition of sebum production in the rat
- Type: in vivo, rat (castrated male)
- measurement setup: 100 μg/rat p.o., daily for 14 days
Each entry below carries its reported Inhibition of testosterone-stimulated sebum secretion.
measurement label: Inhibition of testosterone-stimulated sebum secretion (%)

structure smiles string | experimental target | units label | measured number
C/C(=C\c1ccc(Br)cc1)c1ccc2c(c1)C(C)(C)CCC2(C)C | testosterone-stimulated sebum secretion | % | 65
C/C(=C\c1ccc(F)cc1)c1ccc2c(c1)C(C)(C)CCC2(C)C | testosterone-stimulated sebum secretion | % | 67
C/C(=C\c1ccc(I)cc1)c1ccc2c(c1)C(C)(C)CCC2(C)C | testosterone-stimulated sebum secretion | % | 71
CCCCCCCCc1cc2c(cc1C(C)=Cc1ccccc1)C(C)(C)CCC2(C)C | testosterone-stimulated sebum secretion | % | 71
